Data origin, for the record: patent US20250346606A1

Tested on: HT29 cells
assay_overview: Inhibitory effect of compounds on HT29 cell proliferation
Format: cell-based, Human
condition_details: HT-29; HT29 human colon cancer cells, 72 h incubation, Cell Counting-Lite 2.0; read-out: IC50, inhibitory activity on HT29 cell proliferation
measure_name: IC50 (pM)
Give bare numbers, in pM.

Below are worked cases with known answers.
- molecule: "CC[C@@]1(O)C(=O)OCc2c1cc1n(c2=O)Cc2c-1nc1cc(F)c(C)c3c1c2[C@@](C)(N)CC3 (single isomer, unassigned)"
  target_entity: "HT29 cells"
  measure_name: "IC50"
  unit_text: "pM"
  reported_measurement: 880
- molecule: "CC[C@@]1(O)C(=O)OCc2c1cc1n(c2=O)Cc2c-1nc1cc(F)c(C)cc1c2CCN(C(=O)CO)C(C)C"
  target_entity: "HT29 cells"
  measure_name: "IC50"
  unit_text: "pM"
  reported_measurement: 4790

Input: Name the recorded IC50 for `CC[C@@]1(O)C(=O)OCc2c1cc1n(c2=O)Cc2c-1nc1cc(F)c(C)cc1c2CNC(=O)C1(O)CC1` .
Output: 520

* * *

Tested on: Hela cells
assay_overview: Inhibitory effect of compounds on Hela cell proliferation
Type: cell-based, Human
condition_details: Hela human cervical cancer cells, 72 h incubation, Cell Counting-Lite 2.0; read-out: IC50, inhibitory activity on Hela cell proliferation
measure_name: pIC50
One number for each entry, as −log10 of the molar value.

Input: Any idea what pIC50 was measured for `CC[C@@]1(O)C(=O)OCc2c1cc1n(c2=O)Cc2c-1nc1cc(F)c(C)cc1c2CNC(=O)C1(O)CC1` ?
Output: 8.52

* * *

System: SKOV-3 cells
assay_overview: Inhibitory effect of compounds on SKOV-3 cell proliferation
Format: cell-based, Human
condition_details: Homo sapiens, SK-OV-3, 72 h, read-out: IC50, inhibitory activity on SKOV-3 cell proliferation
Hi there, I'd appreciate the recorded IC50 for every entry that follows.
Answers are plain numbers, in nM.

A selection of reference data follows.
- smiles_notation: "CC#C[C@@H](O)C(=O)N[C@H]1CCc2c(C)c(F)cc3nc4c(c1c23)Cn1c-4cc2c(c1=O)COC(=O)[C@]2(O)CC"
  unit_text: "nM"
  IC50: 7.81
- smiles_notation: "CC[C@@]1(O)C(=O)OCc2c1cc1n(c2=O)Cc2c-1nc1cc(Cl)c(C)c3c1c2[C@@H](NC(=O)[C@H](O)C1CC1)CC3"
  unit_text: "nM"
  IC50: 6.52
- smiles_notation: "CC[C@@]1(O)C(=O)OCc2c1cc1n(c2=O)Cc2c-1nc1cc(Cl)c(C)c3c1c2[C@@H](NC(=O)[C@@H](O)C1CC1)CC3"
  unit_text: "nM"
  IC50: 6.85
- smiles_notation: "CC[C@@]1(O)C(=O)OCc2c1cc1n(c2=O)Cc2c-1nc1cc3c(cc1c2CCNC1CC1)OCO3"
  unit_text: "nM"
  IC50: 2.16

Lab note: next molecule to report on.
Input: # get_value(readout='IC50', item= `CC[C@@]1(O)C(=O)OCc2c1cc1n(c2=O)Cc2c-1nc1cc(Cl)c(C)c3c1c2[C@H](NC(=O)[C@@H](O)C1CC1)CC3` )
Output: 4.99

* * *

Tested on: NCI-N87 cells
assay_overview: Inhibitory effect of compounds on NCI-N87 cell proliferation
Assay type: cell-based, Human
condition_details: read-out: IC50, inhibitory activity on NCI-N87 cell proliferation; NCI-N87 human gastric cancer cells, 72 h incubation, Cell Counting-Lite 2.0
measure_name: IC50 (nM)
Numbers only, in nM.

Look over these answered cases.
- compound: "CC[C@@]1(O)C(=O)OCc2c1cc1n(c2=O)Cc2c-1nc1cc(F)c(Cl)c3c1c2C(NC(=O)C(O)C1CC1)CC3 (single isomer, unassigned) [Example 16 (3-12-C)]"
  reported_measurement: 3.99
- compound: "CC[C@@]1(O)C(=O)OCc2c1cc1n(c2=O)Cc2c-1nc1cc(F)c(Cl)c3c1c2C(NC(=O)C(O)C1CC1)CC3 (single isomer, unassigned) [Example 16 (3-12-D)]"
  reported_measurement: 3.03
- compound: "CC[C@@]1(O)C(=O)OCc2c1cc1n(c2=O)Cc2c-1nc1cc(F)c(Cl)c3c1c2C(NC(=O)C(O)C1CC1)CC3 (single isomer, unassigned) [Example 16 (3-12-B)]"
  reported_measurement: 3.45

// next entry
Input: Form: Entry = CC[C@@]1(O)C(=O)OCc2c1cc1n(c2=O)Cc2c-1nc1cc(F)c(Cl)c3c1c2C(NC(=O)C(O)C1CC1)CC3 (single isomer, unassigned) [Example 16 (3-12-A)] | System = NCI-N87 cells | IC50 = ____
Output: 0.44
